Listing of recorded GI50 by entry.
- Test system: HCT-15
- Method Description: NCI tumour cell line growth inhibition, 48 h
Structures can show the parent of a compound that is named as a salt.
Reported Endpoint: GI50

CCOC(=O)C1=C(C)NC(=S)NC1c1ccccc1 (stereo unspecified): > 41.3 µM
O=C1c2c(O)cccc2-c2nn(CCNCCO)c3ccc(NCCNCCO)c1c23 [LOSOXANTRONE HYDROCHLORIDE]: 2.36 µM
COc1ccc2c(c1)C(OC)C1c3c(cc4c(c3-2)OCO4)CCN1C (stereo unspecified): 2.13 µM
CC1=NN(C(=O)c2ccccc2O)C(=O)/C1=C/c1ccccc1O: 0.292 µM
CCCCCC(/C=N/Nc1ccccc1)C(O)(C(F)(F)F)C(F)(F)F (stereo unspecified): > 100 µM
O=CC1=C(C(=O)OC(c2ccccc2)c2ccccc2)N2C(=O)[C@@H](NC(=O)Cc3cccs3)[C@H]2SC1: > 100 µM
CC(C)OP(=O)(OC(C)C)/C(C#N)=C/c1ccco1: > 100 µM
N=c1oc2cc(O)ccc2cc1C(=O)Nc1ccccn1: 51.5 µM
CCOC(=O)c1c(Br)c(-c2ccc([N+](=O)[O-])cc2)c(Br)n1C: > 10 µM
O=C1CSC(c2c[nH]c3ccccc23)N1c1ccccc1[N+](=O)[O-] (stereo unspecified): > 100 µM
O=c1ccn(C2OC(CO)C(P(=O)(O)O)C2O)c(=O)[nH]1 (stereo unspecified): > 100 µM
